# measurementTarget: CCR5 (Homo sapiens, UniProt P51681)
# Sequence (P51681 whole entry): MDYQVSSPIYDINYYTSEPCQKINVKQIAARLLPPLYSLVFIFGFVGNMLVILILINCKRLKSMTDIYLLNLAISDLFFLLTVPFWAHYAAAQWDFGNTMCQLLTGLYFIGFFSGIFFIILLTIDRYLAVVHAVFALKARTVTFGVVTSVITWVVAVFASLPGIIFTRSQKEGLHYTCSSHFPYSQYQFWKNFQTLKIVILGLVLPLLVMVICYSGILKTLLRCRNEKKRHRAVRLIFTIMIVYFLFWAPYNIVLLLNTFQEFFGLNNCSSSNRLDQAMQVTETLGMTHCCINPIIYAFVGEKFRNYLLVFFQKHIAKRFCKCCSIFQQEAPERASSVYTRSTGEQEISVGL
# protocolDescription: Inhibition of CCR5: [35S]GTPγS binding assays (filtration, SPA-WGA) and calcium influx assay, 10 nM RANTES, CHO-CCR5
# assayConditions: inhibition of GTPγS binding induced by 10 nM RANTES, CHO-CCR5
pIC50: −log10 of the molar value.
measure: pIC50

Illustrative cases are given below, each with its answer.
- compound: "CC(=O)N1CCC(C(=O)N(CCCN2[C@@H]3CC[C@H]2C[C@H](NC(=O)COc2ccc(Cl)cc2Cl)C3)c2ccc(C)c(Cl)c2)CC1"
  pIC50: 7.61
- compound: "COc1cc(CC(=O)N[C@@H]2C[C@H]3CC[C@@H](C2)N3CCCN(C(=O)C2CCN(C(C)=O)CC2)c2ccc(C)c(Cl)c2)cc(OC)c1OC"
  pIC50: 7.69
- compound: "CC(=O)N1CCC(C(=O)N(CCCN2[C@@H]3CC[C@H]2C[C@H](NS(C)(=O)=O)C3)c2ccc(C)c(Cl)c2)CC1"
  pIC50: 7.70

[1] CNS(=O)(=O)c1ccc(CC(=O)N[C@@H]2C[C@H]3CC[C@@H](C2)N3CCCN(C(=O)C2CCN(C(C)=O)CC2)c2ccc(C)c(Cl)c2)cc1
[2] CC(=O)N1CCC(C(=O)N(CCCN2[C@@H]3CC[C@H]2C[C@H](NC(=O)Cc2ccc([N+](=O)[O-])c4ccccc24)C3)c2ccc(C)c(Cl)c2)CC1
[3] Cc1ccc(S(=O)(=O)N[C@@H]2C[C@H]3CC[C@@H](C2)N3CCCN(C(=O)C2CCN(S(C)(=O)=O)CC2)c2ccc(C)c(Cl)c2)cc1 [Compound 15b]
List from greatest to least pIC50. List the labels according to the requested ordering.
3, 2, 1

====

# Tested on: HIV-1 NL(AD8) virus
# protocolDescription: H4DA5 cell model of virus replication (β-galactosidase reporter)
# Format: cell-based
# assayConditions: Human immunodeficiency virus 1, 72 h, read-out: IC50 (nM) H4DA5 cell model
Entries and their IC50 values follow.
Please state the figure in nM; there is no need to write the unit.

- substanceSmiles: "CC(=O)N1CCC(C(=O)N(CCCN2[C@@H]3CC[C@H]2C[C@H](NS(=O)(=O)c2ccc(C)cc2)C3)c2ccc(C)c(Cl)c2)CC1"
  IC50 [nM]: 1

Kindly consider the entry below.
So, CC(=O)N1CCC(C(=O)N(CCCN2[C@@H]3CC[C@H]2C[C@H](NC(=O)OCc2ccccc2)C3)c2ccc(C)c(Cl)c2)CC1 ? Its IC50 was 220

====

# measurementTarget: CCR5 (Homo sapiens)
# protocolDescription: Inhibition of CCR5: [35S]GTPγS binding assays (filtration, SPA-WGA) and calcium influx assay, 10 nM RANTES, CHO-CCR5
# assayConditions: inhibition of GTPγS binding induced by 10 nM RANTES, CHO-CCR5
measure: IC50 (nM)

Illustrative cases are given below, each with its answer.
- substanceSmiles: "CC(=O)N1CCC(C(=O)N(CCCN2[C@@H]3CC[C@H]2C[C@H](NC(=O)Cc2ccc(S(=O)(=O)N(C)C)cc2)C3)c2ccc(C)c(Cl)c2)CC1"
  measurementTarget: "CCR5 (Homo sapiens)"
  IC50 / nM: 3.08
- substanceSmiles: "CC(=O)N1CCC(C(=O)N(CCCN2[C@@H]3CC[C@H]2C[C@H](NS(=O)(=O)c2ccc(C)cc2)C3)c2ccc(C)c(Cl)c2)CC1"
  measurementTarget: "CCR5 (Homo sapiens)"
  IC50 / nM: 6

[1] CC(=O)N1CCC(C(=O)N(CCCN2[C@@H]3CC[C@H]2C[C@H](NC(=O)Cc2cccc4ccccc24)C3)c2ccc(C)c(Cl)c2)CC1
[2] CC(=O)N1CCC(C(=O)N(CCCN2[C@@H]3CC[C@H]2C[C@H](NC(=O)Cc2c[nH]c4ccccc24)C3)c2ccc(C)c(Cl)c2)CC1
[3] CC(=O)N1CCC(C(=O)N(CCCN2[C@@H]3CC[C@H]2C[C@H](NC(=O)Cc2ccc(S(C)(=O)=O)cc2)C3)c2ccc(C)c(Cl)c2)CC1
[4] CC(=O)N1CCC(C(=O)N(CCCN2[C@@H]3CC[C@H]2C[C@H](NC(=O)Cc2ccc([N+](=O)[O-])cc2)C3)c2ccc(C)c(Cl)c2)CC1
List from greatest to least IC50. List the labels according to the requested ordering.
2, 4, 3, 1
(2: 82 nM, 4: 20 nM, 3: 11.6 nM, 1: 4.75 nM)

====

# measurementTarget: CCR5 (Homo sapiens, UniProt P51681)
# protocolDescription: Inhibition of CCR5: [35S]GTPγS binding assays (filtration, SPA-WGA) and calcium influx assay, 10 nM RANTES, CHO-CCR5
# assayConditions: inhibition of GTPγS binding induced by 10 nM RANTES, CHO-CCR5
pIC50: −log10 of the molar value.
measure: pIC50

Illustrative cases are given below, each with its answer.
- compound: "CC(=O)N1CCC(C(=O)N(CCCN2[C@@H]3CC[C@H]2C[C@H](NC(=O)Cc2ccc4ccccc4c2)C3)c2ccc(C)c(Cl)c2)CC1"
  pIC50: 6.16
- compound: "CC(=O)N1CCC(C(=O)N(CCCN2[C@@H]3CC[C@H]2C[C@H](NC(=O)COc2ccc4ccccc4c2)C3)c2ccc(C)c(Cl)c2)CC1"
  pIC50: 7.74
- compound: "CC(=O)N1CCC(C(=O)N(CCCN2[C@@H]3CC[C@H]2C[C@H](NC(=O)Cc2ccc(S(=O)(=O)N4CCOCC4)cc2)C3)c2ccc(C)c(Cl)c2)CC1"
  pIC50: 8.46
- compound: "CC(=O)N1CCC(C(=O)N(CCCN2C3CCC2CC(NC(=O)Nc2ccc(Cl)c(C(F)(F)F)c2)C3)c2ccc(C)c(Cl)c2)CC1 (stereo not drawn) [Compound 10b]"
  pIC50: 7.54
- compound: "CC(=O)N1CCC(C(=O)N(CCCN2[C@@H]3CC[C@H]2C[C@H](NS(=O)(=O)Cc2ccccc2)C3)c2ccc(C)c(Cl)c2)CC1"
  pIC50: 8.13

[A] CC(=O)N1CCC(C(=O)N(CCCN2[C@@H]3CC[C@H]2C[C@H](NC(=O)COc2ccc(Cl)cc2)C3)c2ccc(C)c(Cl)c2)CC1
[B] CC(=O)N1CCC(C(=O)N(CCCN2[C@@H]3CC[C@H]2C[C@H](NC(=O)Cc2ccc(C(F)(F)F)cc2)C3)c2ccc(C)c(Cl)c2)CC1
Two entries are listed, A and B . Which one carries the higher pIC50? Provide the label of your selected option as the answer.
A
(A: 7.56, B: 7.31)
